system.under.test: T1, IL13RA1
T1 construct: coated protein in the ELISA; also called IL13RA1-Fc-His (R&D Systems)
T1 chain: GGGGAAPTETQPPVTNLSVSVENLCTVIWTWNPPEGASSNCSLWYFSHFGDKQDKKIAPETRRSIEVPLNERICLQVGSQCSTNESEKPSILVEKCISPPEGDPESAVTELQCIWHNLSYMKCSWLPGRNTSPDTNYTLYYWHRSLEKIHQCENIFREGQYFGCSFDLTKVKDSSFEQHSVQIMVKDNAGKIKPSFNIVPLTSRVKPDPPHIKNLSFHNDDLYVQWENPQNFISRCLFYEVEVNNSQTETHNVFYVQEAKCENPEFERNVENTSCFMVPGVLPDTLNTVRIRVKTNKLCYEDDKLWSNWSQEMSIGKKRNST
experiment: ELISA on coated IL13RA1-Fc-His, 150 ng IgG1; None 0.094
# ELISA Absorbance (405 nm-570 nm) per record follows
Lab note: record just the number, no unit beside it.

Example entries begin here.
>  <binder>
HW-81 chimeric rabbit-human IgG1 LA/LA/PG (antibody, V domains shown, Fc-silenced (L234A/L235A/P329G) IgG1, lambda; Alexa Fluor 647-labeled in single-step flow cytometry; Cluster C-45) VH: QKQLVESGGGLVTPGGTLTLTCTVSGFSLSSNGVSWVRQAPGKGLEYIGLIRSIGSTYYATWAKGRFTISKTSTTVDLKITSPTTEDTATYFCARGGYRNGFKLWGPGTLVTVSS VL: QPVLTQSPSVSAALGASAKLTCTLSSAHKTYYIEWYQQQHPGKAPRYLMQLQSDGSYTKGTGVPDRFSGSSSGADRYLIISSVQAEDEADYICGVIDSAVYVFGGGTQLTVTG

>  <ELISA Absorbance (405 nm-570 nm)>
0.099

$$$$
>  <binder>
HW-70 chimeric rabbit-human IgG1 LA/LA/PG (antibody, V domains shown, Fc-silenced (L234A/L235A/P329G) IgG1, lambda; Alexa Fluor 647-labeled in single-step flow cytometry; Cluster C-1) VH: QSLEESGGRLVTPGTPLTLTCTVSGFSLSSNAMSWVRQAPGKGLEWIGTIDGYGYTYYASWAKGRFTVSKTSTTVDLKITSPTTEDTATYFCAREIYLGSNFWGPGTLVTISS VL: SFVLTQPASVQVNLGQTVSLTCTADTLSRRYASWYQQKPGQAPVLLIYRDTSRPSGVPDRFSGSSSGNTATLTISGAQAGDEADYYCATADGSGSSYQFVFGGGTQLTVTG

>  <ELISA Absorbance (405 nm-570 nm)>
0.085

$$$$

## Task ELISA Absorbance (405 nm-570 nm) for HW-25 chimeric rabbit-human IgG1 LA/LA/PG (antibody, V domains shown, Fc-silenced (L234A/L235A/P329G) IgG1, lambda; Alexa Fluor 647-labeled in single-step flow cytometry; Cluster C-1) VH: QSLEESGGRLVTPGTPLTLTCTVSGFSLSSYAMGWVRQAPGKGLEWIGIIDSRGSTYYATWAKGRFTISKTSTTVDLKITSPTTEDTATYFCAREDSYYYDSFNLWGPGTLVTVSS VL: SFVLTQPASVQVNLGQTVSLTCTADTLSRRYASWYQQKPGQAPVLLIYRDTSRPSGVPDRFSGSSSGNTATLTISGAQAGDEADYYCATSDGSGSSYQCVFGGGTQLTVTG ?
## Result 0.074
